Assign % Inhibition (1 μM) to each entry below.
target-desc: human type II phospholipase A2 (Homo sapiens, UniProt P14555)
Sequence (P14555 21-144): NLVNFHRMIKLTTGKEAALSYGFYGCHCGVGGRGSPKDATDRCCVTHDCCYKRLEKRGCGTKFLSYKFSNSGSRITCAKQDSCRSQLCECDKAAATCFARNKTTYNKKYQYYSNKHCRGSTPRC
experiment: Human type II phospholipase A2 enzyme assay (3H-oleic acid labelled E. coli substrate)
Assay type: biochemical
recorded-conditions: 1 μM; Table 4
Strand notation (5' to 3'): a small letter for the sugar, then the base; units joined by * are phosphorothioate-linked, units joined directly phosphodiester-linked; [ ] holds rarer units or linkages, { } end groups; capitals alone tell only the bases. d = 2'-deoxy (DNA)
Give bare numbers, in %.

Please review the entries below; each comes with its answer.
substance: ISIS 3181: TCTGCCCCGGCCGTCGCTCCC, phosphorothioate, SEQ ID NO 58 (dT*dC*dT*dG*dC*dC*dC*dC*dG*dG*dC*dC*dG*dT*dC*dG*dC*dT*dC*dC*dC)
% Inhibition (1 μM) (%): 42.7
//
substance: ISIS 3694: ACAGCAGCTGTGAGGAGACAC, phosphorothioate, SEQ ID NO 92 (dA*dC*dA*dG*dC*dA*dG*dC*dT*dG*dT*dG*dA*dG*dG*dA*dG*dA*dC*dA*dC)
% Inhibition (1 μM) (%): 28.2
//
substance: ISIS 3663: GTCTGCTGGGTGGTCTGAACT, phosphorothioate, SEQ ID NO 85
% Inhibition (1 μM) (%): 16.3

Can you give me % Inhibition (1 μM) for all of these, one by one?
1. ISIS 3628: GGAGCCCTfCTATACCCACCC, phosphorothioate, SEQ ID NO 78
2. ISIS 3472: TGGGTGAGGGATGCTTTCTGC, phosphorothioate, SEQ ID NO 68 (dT*dG*dG*dG*dT*dG*dA*dG*dG*dG*dA*dT*dG*dC*dT*dT*dT*dC*dT*dG*dC)

1. 13.6
2. 69.0

Can you give me % Inhibition (1 μM) for all of these, one by one?
1. ISIS 3659: TGCTCCTCCTTGGTGGCTCTC, phosphorothioate, SEQ ID NO 84 (dT*dG*dC*dT*dC*dC*dT*dC*dC*dT*dT*dG*dG*dT*dG*dG*dC*dT*dC*dT*dC)
2. ISIS 3476: GCTGGAAATCTGCTGGATGTC, phosphorothioate, SEQ ID NO 72 (dG*dC*dT*dG*dG*dA*dA*dA*dT*dC*dT*dG*dC*dT*dG*dG*dA*dT*dG*dT*dC)
3. ISIS 3480: TTGCTTTATTCAGAAGAGACC, phosphorothioate, SEQ ID NO 76 (dT*dT*dG*dC*dT*dT*dT*dA*dT*dT*dC*dA*dG*dA*dA*dG*dA*dG*dA*dC*dC)

38.2
43.4
24.5

Can you give me % Inhibition (1 μM) for all of these, one by one?
1. ISIS 4149: CTACGGCAGAGACGAGATAGC, phosphorothioate, SEQ ID NO 96 (dC*dT*dA*dC*dG*dG*dC*dA*dG*dA*dG*dA*dC*dG*dA*dG*dA*dT*dA*dG*dC)
2. ISIS 3665: GGACTGGCCTAGCTCCTCTGC, phosphorothioate, SEQ ID NO 86 (dG*dG*dA*dC*dT*dG*dG*dC*dC*dT*dA*dG*dC*dT*dC*dC*dT*dC*dT*dG*dC)
3. ISIS 3688: TGGCCTCACCGATCCGTTGCA, phosphorothioate, SEQ ID NO 91 (dT*dG*dG*dC*dC*dT*dC*dA*dC*dC*dG*dA*dT*dC*dC*dG*dT*dT*dG*dC*dA)

1: 20.2; 2: 45.8; 3: 43.1

====

Tested on: HSV-1 (KOS)
experiment: HSV-1 infection ELISA assay
Format: cell-based
recorded-conditions: 50% inhibition of HSV replication relative to control infected cells; Table 1
quantity: EC50 (µM)
Numbers only, in µM.

Please review the entries below; each comes with its answer.
substance: ISIS 4717: GG GGT TGG GG, P = S, SEQ ID NO 26 (GGGGTTGGGG; all phosphorothioate, sugars by position not given here)
numeric-readout: 0.6
//
substance: ISIS 4671: GGG T GGG T ATA GAA G, P = S, SEQ ID NO 49 (GGGTGGGTATAGAAG; all phosphorothioate, sugars by position not given here)
numeric-readout: 0.4
//
substance: ISIS 5365: GA GAC CGG GGT TGG GG, P = S, SEQ ID NO 23 (GAGACCGGGGTTGGGG; all phosphorothioate, sugars by position and methylation of C not given here)
numeric-readout: 0.47
//
substance: ISIS 5356: CGG GGT TGG GG, P = S, SEQ ID NO 25 (CGGGGTTGGGG; all phosphorothioate, sugars by position and methylation of C not given here)
numeric-readout: 0.7

Give its EC50 value. Item: ISIS 5675: TT GGGG TT GGGG TT, P = S, SEQ ID NO 40 (TTGGGGTTGGGGTT; all phosphorothioate, sugars by position not given here) 0.42

====

Test system: HSV-1 (KOS)
experiment: HSV-1 infection ELISA assay
Type: cell-based
recorded-conditions: HSV-1 (KOS strain); Table 9; some in duplicate
quantity: EC50 (µM)
Numbers only, in µM.

substance: ISIS 4350: GACGGTCAAGGGGAGGGTTGG, phosphorothioate, SEQ ID NO 129 (GACGGTCAAGGGGAGGGTTGG; all phosphorothioate, sugars by position and methylation of C not given here)
units-text: µM
numeric-readout: 0.25

substance: ISIS 4111: CCTGGATGATGCTGGGGTAC, phosphorothioate, SEQ ID NO 131 (CCTGGATGATGCTGGGGTAC; antisense; all phosphorothioate, sugars by position and methylation of C not given here)
units-text: µM
numeric-readout: 0.6

# input for lookup
Reported EC50 for HSV-1 (KOS), given ISIS 4435: GGGGAGACCGAAACCGCAAA, phosphorothioate, SEQ ID NO 130 (GGGGAGACCGAAACCGCAAA; antisense; all phosphorothioate, sugars by position and methylation of C not given here) ? 0.22

====

target-desc: human type II phospholipase A2 (Homo sapiens)
Sequence (P14555 21-144): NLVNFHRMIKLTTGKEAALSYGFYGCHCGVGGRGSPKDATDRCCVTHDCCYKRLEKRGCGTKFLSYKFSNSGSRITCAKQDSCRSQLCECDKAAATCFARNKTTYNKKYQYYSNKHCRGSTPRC
experiment: Human type II phospholipase A2 enzyme assay (3H-oleic acid labelled E. coli substrate)
Type: biochemical
recorded-conditions: 1 μM; Table 4
Strand notation (5' to 3'): a small letter for the sugar, then the base; units joined by * are phosphorothioate-linked, units joined directly phosphodiester-linked; [ ] holds rarer units or linkages, { } end groups; capitals alone tell only the bases. d = 2'-deoxy (DNA)
Please use satisfied for % Inhibition (1 μM) under 70% and not satisfied for everything else, ties included.

substance: ISIS 3468: GGGACTCAGCAACGAGGGGTG, phosphorothioate, SEQ ID NO 65 (dG*dG*dG*dA*dC*dT*dC*dA*dG*dC*dA*dA*dC*dG*dA*dG*dG*dG*dG*dT*dG)
assigned-class: not satisfied

substance: ISIS 3470: GTAGGGAGGGAGGGTATGAGA, phosphorothioate, SEQ ID NO 66 (dG*dT*dA*dG*dG*dG*dA*dG*dG*dG*dA*dG*dG*dG*dT*dA*dT*dG*dA*dG*dA)
assigned-class: not satisfied

substance: ISIS 3478: TGGTTAAGCACGGAGTTGAGG, phosphorothioate, SEQ ID NO 74 (dT*dG*dG*dT*dT*dA*dA*dG*dC*dA*dC*dG*dG*dA*dG*dT*dT*dG*dA*dG*dG)
assigned-class: satisfied

substance: ISIS 4560: GGGG C GGGG C GGGG C GGGG C G, P = S, SEQ ID NO 42 (dG*dG*dG*dG*dC*dG*dG*dG*dG*dC*dG*dG*dG*dG*dC*dG*dG*dG*dG*dC*dG)
assigned-class: not satisfied

substance: ISIS 3473: CTGCCTGGCCTCTAGGATGGG, phosphorothioate, SEQ ID NO 69 (dC*dT*dG*dC*dC*dT*dG*dG*dC*dC*dT*dC*dT*dA*dG*dG*dA*dT*dG*dG*dG)
assigned-class: satisfied

Threshold test, % Inhibition (1 μM) < 70%: ISIS 3679: AGTAGGCCTGGAAGGAAATTT, phosphorothioate, SEQ ID NO 90 (dA*dG*dT*dA*dG*dG*dC*dC*dT*dG*dG*dA*dA*dG*dG*dA*dA*dA*dT*dT*dT) satisfied

And what about the substance ISIS 3185: CAAAGATCATGATCACTGCCA, phosphorothioate, SEQ ID NO 61 (dC*dA*dA*dA*dG*dA*dT*dC*dA*dT*dG*dA*dT*dC*dA*dC*dT*dG*dC*dC*dA) ? satisfied

And what about the substance ISIS 3474: ATAGAAGGGCTCCTGCCTGGC, phosphorothioate, SEQ ID NO 70 (dA*dT*dA*dG*dA*dA*dG*dG*dG*dC*dT*dC*dC*dT*dG*dC*dC*dT*dG*dG*dC) ? satisfied

And what about the substance ISIS 3475: TCTCATTCTGGGTGGGTATAG, phosphorothioate, SEQ ID NO 71 (dT*dC*dT*dC*dA*dT*dT*dC*dT*dG*dG*dG*dT*dG*dG*dG*dT*dA*dT*dA*dG) ? satisfied

And what about the substance ISIS 3196: GGG T GGG T ATA G AAG G GCT CC, P = S, SEQ ID NO 47 (GGGTGGGTATAGAAGGGCTCC; all phosphorothioate, sugars by position and methylation of C not given here) ? not satisfied
